Test system: NCI-H522 lung
Assay: NCI tumour cell line growth inhibition, 48 h
READOUT TYPE: TGI (µM)
Please reply with the bare figure in µM and do not write the unit itself.

1. Cc1[nH]n(C(=O)c2ccccc2O)c(=O)c1/C=C1\C(=O)C=Cc2ccccc21    15.1

Now consider a different compound.
Query: Fill in the recorded TGI for this compound, with NCI-H522 lung as test system: CC1OC(OP(=O)(OCc2ccccc2)OCc2ccccc2)C(OC(=O)c2ccccc2)C(OC(=O)c2ccccc2)C1I (stereo not given)
Result: 88.2

###

Tested on: U251 CNS
Assay: NCI tumour cell line growth inhibition, 48 h
READOUT TYPE: TGI

These solved cases illustrate the format of a correct answer.
1) CCOC(=O)C1(C(=O)OCC)C[C@H]2CON=C2[C@@H]1c1ccc(C(F)(F)F)cc1    > 100 µM
2) Cn1c2ccccc2n2c(=O)c(-c3ccc(O)cc3)nnc12    85.8 µM
3) Cc1ccc(/C=C2\CCOC2=O)cc1    > 100 µM
4) CSC(=S)N/N=C(\C)c1ccccn1    13.6 µM
5) CC1SC(c2cccs2)N(NC(=O)C(O)c2ccccc2)C1=O (centres undefined)    > 100 µM

Query: // query TGI value for entry CCCCc1ccc(N2C(=O)c3cc(C)cnc3S2(=O)=O)cc1
Result: > 100 µM

Query: // query TGI value for entry Cc1nn(-c2ccccc2)c(C)c1/C=N/NC(=O)c1sc(=S)n(-c2ccc(Cl)cc2)c1N
Result: > 100 µM

Query: // query TGI value for entry OC(Cn1cncn1)(Cn1cncn1)c1ccc(Cl)cc1Cl
Result: > 100 µM

Query: // query TGI value for entry COc1ccc(-n2c(N)c(C(=O)NCCN3CCOCC3)c3nc4ccccc4nc32)cc1OC
Result: > 100 µM

Query: // query TGI value for entry O=Cc1cc(O)c(O)c(O)c1-c1c(C=O)cc(O)c(O)c1O
Result: > 100 µM

Query: // query TGI value for entry CC(C)(C)NNc1c([N+](=O)[O-])cnn(-c2ccccc2)c1=O
Result: 8.05 µM

Query: // query TGI value for entry CCCCN(CCCC)CC(=O)c1ccc2cc(Cl)c3ccccc3c2c1
Result: 68.8 µM

Query: // query TGI value for entry CCC1=C(C)C2=NC1=CC1=NC(=C(CC)/C1=C/O)C=C1N=C3C(=C1C)C(=O)C(C(=O)OC)C3=C1NC(=C2)C(C)C1CCC(=O)OC (centres undefined)
Result: > 100 µM

Query: // query TGI value for entry Cc1c2cc[n+](C)cc2c(C)c2c1[nH]c1ccc(O)cc12
Result: 25 µM

Query: // query TGI value for entry O=c1c(-c2ccccc2)c[nH]c2cc([N+](=O)[O-])c(/C(Cl)=C/c3ccccc3)cc12
Result: 24.4 µM

Query: // query TGI value for entry CC(=O)c1nc2ccccc2n1CC(=O)c1ccc([N+](=O)[O-])cc1
Result: 19.9 µM

Query: // query TGI value for entry c1ccc(/C(=N/Nc2cnccn2)c2ncccn2)cc1
Result: > 100 µM

###

System: LOX IMVI melanoma
Assay: NCI tumour cell line growth inhibition, 48 h
READOUT TYPE: TGI

These solved cases illustrate the format of a correct answer.
1) CC(C)C[C@H](NC(=O)[C@@H](Cc1cccc2ccccc12)NC(=O)N1CCOCC1)B(O)O    5.98 µM
2) Cc1ccccc1NC(=O)NC(CC(N)=O)c1ccc2c(c1)nc(-c1cccc(Oc3ccc(C(C)(C)C)cc3)c1)n2CCCN1CCCCC1C (centres undefined)    3.14 µM
3) COc1ccc(-n2c(N)c(C(=O)NCCN3CCOCC3)c3nc4ccccc4nc32)cc1OC    > 100 µM
4) CCOC(=O)c1ccc(N=C/C=C(\Nc2ccc(C(=O)OCC)cc2)c2ccc3ccccc3c2)cc1    34.4 µM

Query: // query TGI value for entry COc1cccc(-n2nnc3c(N)nc(N)nc32)c1
Result: > 100 µM

###

Tested on: UACC-257 melanoma
Assay: NCI tumour cell line growth inhibition, 48 h
Entries annotated with measured GI50

1) Cc1ccc(/C=C2\CCOC2=O)cc1    > 100 µM
2) COc1ccc(C2CC(c3cc(OC)c(OC)c(OC)c3)=NN2)cc1 (stereo not given)    43.4 µM
3) CSC(=S)N/N=C(\C)c1ccccn1    0.159 µM
4) COc1ccc2c(CNCCCCO)cc3cc4c(cc3c2c1)OCO4    0.823 µM
5) O=C(NC(=S)NS(=O)(=O)c1ccc(N2N=C3c4ccccc4CC3C2c2cccs2)cc1)c1ccccc1 (stereo not given)    42.8 µM

Query: Fill in the recorded GI50 for this compound, with UACC-257 melanoma as test system: CC1=C(C)C(=O)C(C(C)C2=C(C)C(=O)C(C)=C(C)C2=O)=C(C)C1=O
Result: 33.5 µM

Query: Fill in the recorded GI50 for this compound, with UACC-257 melanoma as test system: CCOc1ccc2c(c1)/C(=C\C=C\C1CC(C)C3CC(OCC)CCC3N1CC)CC(C)N2CC (stereo not given)
Result: 0.795 µM

Query: Fill in the recorded GI50 for this compound, with UACC-257 melanoma as test system: Cc1nc2cc(O)c(O)cc2cc1Oc1ccc(NC(=O)Nc2ccc(Cl)c(Cl)c2)cc1
Result: 7.27 µM

Query: Fill in the recorded GI50 for this compound, with UACC-257 melanoma as test system: Cc1c2c(nn1-c1ccc(S/N=C3\SCC(=O)CN3c3ccccc3)cc1)-c1ccccc1CC2
Result: 45.3 µM

Query: Fill in the recorded GI50 for this compound, with UACC-257 melanoma as test system: O=C1c2cccc3cccc(c23)C(=O)N1CCCCOc1ccc(-c2nc3ccc(N4CCOCC4)cc3[nH]2)cc1
Result: 5.06 µM

###

System: SNB-19 CNS
Assay: NCI tumour cell line growth inhibition, 48 h
READOUT TYPE: GI50

1. O=C1NC(=NCc2ccccn2)S/C1=C\c1ccc2ncccc2c1    10700 nM
2. Nc1nc(Cl)nc2c1ncn2C1O[C@H](CO)[C@@H](O)[C@@H]1F (stereo partly drawn)    216 nM

Now consider a different compound.
Query: // query GI50 value for entry COC(=O)c1oc2c(C(=O)/C=C/c3ccc(OC)cc3)c(OCCCN3CCCCC3)ccc2c1C
Result: 2100 nM

###

Entries annotated with measured TGI
System: HS 578T breast
Assay: NCI tumour cell line growth inhibition, 48 h
Where a SMILES comes first, the peptide text is derived from it. [ ]: non-standard residue; d: D form. The star is where a group is joined. X28 = COC1=CC(=O)N(C(=O)[C@@H](O*)C(C)C)[C@H]1Cc1ccccc1; NMeL = CN[C@@H](CC(C)C)C(=O)O; Hexanoyl = CCCCCC(=O)*

Query: // query TGI value for entry Cc1cccc(Nc2cn(CCOc3ccccc3)c(=O)[nH]c2=O)c1
Result: > 100 µM

Query: // query TGI value for entry CC1SC(c2cccs2)N(NC(=O)C(O)c2ccccc2)C1=O (stereo not given)
Result: > 100 µM

Query: // query TGI value for entry COC(=O)c1ccc(/C=C/C2=CC(=O)C=CC2=O)cc1
Result: > 100 µM

Query: // query TGI value for entry CCCCCC(=O)N[C@H](C(=O)N[C@H](C(=O)N(C)[C@@H](CC(C)C)C(=O)N1CCC[C@H]1C(=O)N1CCC[C@H]1C(=O)O[C@H](C(=O)N1C(=O)C=C(OC)[C@@H]1Cc1ccccc1)C(C)C)C(C)C)C(C)C (Hexanoyl-VV[NMeL]PP-X28)
Result: > 100 µM

Query: // query TGI value for entry O=C1/C(=C/c2ccc(O)cc2)CCC1CNc1ccc(Cl)cc1 (stereo not given)
Result: > 100 µM

Query: // query TGI value for entry CC(C)(C)c1cc(C2COC(=O)COCCOCC(=O)OCCOCCO2)cc(C(C)(C)C)c1O (stereo not given)
Result: 77.7 µM

Query: // query TGI value for entry COc1ccc(N(C(=O)OC(C)(C)C)[C@@H]2C(C)=C[C@H]([S@@](=O)c3ccc(C)cc3)[C@@H]3C(=O)N(C)C(=O)[C@@H]32)cc1
Result: 42.9 µM

Query: // query TGI value for entry CC(=O)C1=CC=C/C1=N\Nc1ccccc1
Result: 34.9 µM

###

Tested on: OVCAR-8 ovarian
Assay: NCI tumour cell line growth inhibition, 48 h
READOUT TYPE: GI50

Query: // query GI50 value for entry CCOc1ccc2c(c1)/C(=C\C=C\C1CC(C)C3CC(OCC)CCC3N1CC)CC(C)N2CC (stereo not given)
Result: 610 nM

Query: // query GI50 value for entry Cc1ccccc1NC(=O)NC(CC(N)=O)c1ccc2c(c1)nc(-c1cccc(Oc3ccc(C(C)(C)C)cc3)c1)n2CCCN1CCCCC1C (stereo not given)
Result: 2440 nM

Query: // query GI50 value for entry Oc1ccc2ccccc2c1/C=N\Nc1ccccn1
Result: 365 nM

Query: // query GI50 value for entry CCN1C(=O)N(c2c(F)c(OC)cc(OC)c2F)Cc2cnc3[nH]c(CN4CCOCC4)cc3c21
Result: 3980 nM

Query: // query GI50 value for entry COc1ccc(C(=O)Nc2cccc(C3CC(=O)c4c(cc(OC)c(OC)c4OC)O3)c2)cc1 (stereo not given)
Result: 2790 nM
